# Tested on: HCV replicon 1A
# ASSAY SUMMARY: Cell-based HCV replicon assay (Replicon Assay A), replicon 1A
# Set-up: species or system Hepatitis C virus (HCV)
# EXPERIMENTAL SETUP: replicon RNA by real time PCR, cells harvested on day 3
EC50 values by entry
Just the number please, in nM, no unit attached.

Consider the reported EC50 for these compounds:
COC(=O)N[C@H](C(=O)N1CCC[C@H]1c1ncc(-c2cc(F)c3c(c2)OC(c2nc(C)co2)n2c-3cc3cc(-c4cnc([C@@H]5CCCN5C(=O)[C@@H](NC(=O)OC)C(C)C)[nH]4)ccc32)[nH]1)C(C)C (single isomer, unassigned) [Compound 24] = 0.0021
COC(=O)N[C@H](C(=O)N1CCC[C@@H]1c1ncc(-c2ccc3c(c2)cc2n3C(c3cnco3)Oc3cc(-c4cnc([C@H]5CCCN5C(=O)[C@H](NC(=O)OC)C(C)C)[nH]4)cc(F)c3-2)[nH]1)C(C)C (single isomer, unassigned) [Compound 17] = 0.0327
CCc1cnc(C2Oc3cc(-c4cnc([C@@H]5CCCN5C(=O)[C@@H](NC(=O)OC)C(C)C)[nH]4)cc(F)c3-c3cc4cc(-c5cnc([C@@H]6CCCN6C(=O)[C@@H](NC(=O)OC)C(C)C)[nH]5)ccc4n32)o1 (single isomer, unassigned) [Compound 28] = 0.0021
CCc1cc([C@@H]2Oc3cc(-c4cnc([C@@H]5CCCN5C(=O)[C@@H](NC(=O)OC)C(C)C)[nH]4)cc(F)c3-c3cc4cc(-c5cnc([C@@H]6CCCN6C(=O)[C@@H](NC(=O)OC)C(C)C)[nH]5)ccc4n32)on1 (single isomer, unassigned) [Compound 7] = 0.0073
COC(=O)N[C@H](C(=O)N1CCC[C@H]1c1ncc(-c2cc(F)c3c(c2)OC(c2cc4ccccn4n2)n2c-3cc3cc(-c4cnc([C@@H]5CCCN5C(=O)[C@@H](NC(=O)OC)C(C)C)[nH]4)ccc32)[nH]1)C(C)C (single isomer, unassigned) [Compound 39] = 0.0068

q: Need EC50, item COC(=O)N[C@H](C(=O)N1CCC[C@H]1c1ncc(-c2cc(F)c3c(c2)OC(c2cc4ccccn4n2)n2c-3cc3cc(-c4cnc([C@@H]5CCCN5C(=O)[C@@H](NC(=O)OC)C(C)C)[nH]4)ccc32)[nH]1)C(C)C (single isomer, unassigned) [Compound 40]
a: 0.0084
